Reported inhibition values for the following molecules.
Test system: replicative DNA helicase (DnaC/DnaB), Staphylococcus aureus
ASSAY OVERVIEW: S. aureus DnaC helicase unwinding inhibition – biochemical, fluorescence unwinding readout, primary screen (AID 485395);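 note: 0% = mean of negative control wells and 100% = mean of positive control wells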
EXPERIMENTAL SETUP: purified S. aureus helicase, fluorescence unwinding assay; active compounds read high; concentration not given here
The campaign covered roughly 120,000 compounds. About 55 (0.05%) were called active. Only a selection was taken, and actives are over-represented in it overall.
Write the answer as a number in %, unit excluded.

These recorded examples may help you get a feel for the data.
N#Cc1ccc(NC(=O)/C=C/c2ccccc2)cc1 = 4
O=C1CCCc2c1cnn2-c1ccccc1 = -10
CC(=O)Nc1ccc(NC2SC(=O)NC2=O)cc1 (centres undefined) = 7

Query string: Name the recorded inhibition for Cc1cn2ccccc2c1P(=Nc1ccccc1)(N1CCOCC1)N1CCOCC1 .
Result string: 7

Query string: Name the recorded inhibition for NC(=O)CN1CCN(Cc2cccc3ccccc23)CC1 .
Result string: 3

Query string: Name the recorded inhibition for CC1(C)C=C(C(=O)N2CCCCC2)C(C)(C)N1 .
Result string: 5

Query string: Name the recorded inhibition for COc1cc(OC)c(OC)cc1CN1CCN(c2ccccc2F)CC1 .
Result string: 10

Query string: Name the recorded inhibition for COC(=O)N/N=C(\C)c1ccc2c(c1)Nc1ccccc1S2 .
Result string: 8

Recorded values, source PubChem BioAssay AID485395.
